Below, each entry is listed alongside its reported normalized growth.
- TEST_NAME: chemical genetic growth profiling, strain panel (AID 1159580);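 also: tested at 20 µM; growth read once vehicle control cultures reached saturation at 30 °C; 1 = growth at the plate median or of vehicle wells; lower values mean less growth of the strain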
- TEST_CONTEXT: S. cerevisiae deletion strains, growth OD, locus YOL147C, strain pex11, hits give low values
About 2,000 (36%) of roughly 5,500 compounds were called active. Another 18% or so got no clear call; they are omitted. The list shows a part of the results.

COMPOUND	normalized growth
CSCCC(N)C(=O)NC(CC(C)C)C(=O)NC(Cc1ccccc1)C(=O)O (centres undefined)	0.996 (inactive)
C[C@H]1O[C@@H](O[C@H]2[C@@H](O)C[C@H](O[C@H]3[C@@H](O)C[C@H](O[C@H]4CC[C@]5(C)C6C[C@@H](O)[C@]7(C)[C@@H](C8=CC(=O)OC8)CC[C@]7(O)C6CC[C@@H]5C4)O[C@@H]3C)O[C@@H]2C)C[C@H](O)[C@@H]1O (some centres undefined)	0.99 (inactive)
COc1ccc(-c2cc(=O)c3c(O)cc(O)c(-c4cc(-c5cc(=O)c6c(O)cc(O)cc6o5)ccc4OC)c3o2)cc1	1.02 (inactive)

Lab note: next compound to report on.
Item COc1cc(C)c2c(=O)c3c(O)cc(OC)cc3oc2c1 has what recorded normalized growth?
0.985 (inactive)

====

- TEST_NAME: chemical genetic growth profiling, strain panel (AID 1159580);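 also: tested at 20 µM; growth read once vehicle control cultures reached saturation at 30 °C; 1 = growth at the plate median or of vehicle wells; lower values mean less growth of the strain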
- TEST_CONTEXT: S. cerevisiae deletion strains, growth OD, locus YNL233W, strain BNI4
Among all 5,500 compounds or so, about 2,000 (36%) were called active. Inconclusive results (about 18%) are left out. Cut-off read from the data, not from the text of the source: active = normalized growth mostly below about 0.91 (no sharp cut-off); inconclusive = no clear call, values can overlap the other calls; inactive = mostly above about 0.92. This is one part of the list.
Valid outcomes are listed here; reply with one: yes (1) for active, no (0) for inactive

Consider the following illustrative entries.
MOLECULE	ASSIGNED_CLASS
COc1cc(C)c2c(=O)c3c(O)cc(O)cc3oc2c1	yes (1)
CC(C)(C)NCC(O)COc1cccc2c1C[C@H](O)[C@H](O)C2 (stereo partly specified)	no (0)
COC(=O)C(N)CS (stereo unspecified)	no (0)
COc1ccc(-c2cc(=O)c3c(O)cc(O)cc3o2)cc1O	no (0)
COc1ccc(-c2cc(=O)c3c(O)cc(O)cc3o2)cc1	no (0)

What is the recorded call for this molecule in the test? COc1ccc(-c2cc(=O)c3c(O)c(OC)c(O[C@H]4O[C@H](CO[C@@H]5O[C@@H](C)[C@H](O)[C@@H](O)[C@H]5O)[C@@H](O)[C@H](O)[C@H]4O)cc3o2)cc1
no (0)

What is the recorded call for this molecule in the test? Cc1ccc(C(C)C)c(O)c1C(=O)O
no (0)

What is the recorded call for this molecule in the test? Cc1c(OCC(F)(F)F)ccnc1CS(=O)c1nc2ccccc2[nH]1 (stereo unspecified)
no (0)

====

- TEST_NAME: chemical genetic growth profiling, strain panel (AID 1159580);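 also: tested at 20 µM; growth read once vehicle control cultures reached saturation at 30 °C; 1 = growth at the plate median or of vehicle wells; lower values mean less growth of the strain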
- TEST_CONTEXT: S. cerevisiae deletion strains, growth OD, locus YAL026C, strain drs2
Screen size: about 5,500 compounds; about 2,000 (36%) were called active. Another 18% or so got no clear call; they are omitted. Rule as the data show it: active = normalized growth mostly below about 0.91 (no sharp cut-off); inconclusive = no clear call, values can overlap the other calls; inactive = mostly above about 0.92. This is one part of the list.
Valid outcomes are listed here; reply with one: label 1 (active), label 0 (inactive)

Consider the following illustrative entries.
>>> df
                                   compound  assigned_class
0  OC1(c2ccc(Cl)c(C(F)(F)F)c2)CCN(CCCC(c2ccc(F)cc2)c2ccc(F)cc2)CC1         label 1
1     O=C(CCCN1CCN(c2ccccn2)CC1)c1ccc(F)cc1         label 1
2  CN(C)C(=O)C(CCN1CCC(O)(c2ccc(Cl)cc2)CC1)(c1ccccc1)c1ccccc1         label 0
3  COC(=O)C[C@H]1C(C)(C)[C@@H](O)[C@@H]2CC3=C4CC(O)O[C@@H](c5ccoc5)[C@]4(C)CCC3[C@@]1(C)C2=O (stereo not given in full)         label 0

What is the recorded call for this compound in the test? O=C(CCCN1CCC(O)(c2ccc(Cl)cc2)CC1)c1ccc(F)cc1
label 1
